// provenance: ChEMBL document CHEMBL4689842

# Test system: Fibroblast
# Assay Procedure: Multiplex assay against human fibroblast
# Assay type: toxicity, cell-based
# Settings: 24 h, 1 µM, compound concentration 1 uM, replicate 1
This section presents molecules with their documented Population Mitotic Cells (%) values.
Field format: number, assumed %, no unit text.

These solved cases illustrate the format of a correct answer.
CC(Cc1ccc(O)c(O)c1)C(C)Cc1ccc(O)c(O)c1 (stereo not given) [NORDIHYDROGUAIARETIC ACID] ... 50
Cc1c(P(=S)(c2ccccc2)c2ccccc2)n2ccccc2[n+]1C/C=C/c1ccccc1.[Br-] ... 29
C=CC(=O)Nc1cc(-n2c(=O)ccc3cnc4ccc(-c5ccc(NS(C)(=O)=O)cc5)cc4c32)ccc1C ... 45

Dear colleague, please send me the reported Population Mitotic Cells (%) for CC[C@H](Nc1ncnc2[nH]cnc12)c1nc2cccc(F)c2c(=O)n1-c1ccccc1 [IDELALISIB] when you can.
40

Dear colleague, please send me the reported Population Mitotic Cells (%) for Cl.NC[C@@H]1O[C@H](C23CC4CC(CC(C4)C2)C3)Cc2c1ccc(O)c2O when you can.
50

###

# System: U2OS
# Assay Procedure: Multiplex assay against U2OS
# Assay type: toxicity, cell-based
# Settings: human, 48 h, 10 µM, compound concentration 10 uM, replicate 2
Rule: satisfied for Population Hoechst High Intensity Objects (%) not less than 10%, not satisfied for anything less.

Worked cases, answers included:
CN1CCN(Cc2ccc(-c3cnc4[nH]cc(-c5ccc6[nH]ccc6c5)c4c3)cc2)CC1 ... satisfied
CCCCN(CC)c1nc(C)nc2c1c(C)cn2-c1c(C)cc(C)cc1C.Cl ... not satisfied
CC(Cc1ccc(O)c(O)c1)C(C)Cc1ccc(O)c(O)c1 (centres undefined) [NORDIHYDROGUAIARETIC ACID] ... not satisfied
Cc1c(Nc2ccc(S(=O)(=O)N3CCN(C)CC3)cc2F)nc2ccc(-c3cnn(C4CC4)c3)cn2c1=O ... satisfied
CC(/C=C1\SC(=S)N(CCCC(=O)Nc2ccc(C(=O)O)c(O)c2)C1=O)=C\c1ccccc1 ... not satisfied
CN1C(=O)[C@@H](NC(=O)c2cc3ccccc3[nH]2)N=C(c2ccccc2)c2ccccc21 [DEVAZEPIDE] ... satisfied
N#CCNC(=O)c1ccc(-c2ccnc(Nc3ccc(N4CCOCC4)cc3)n2)cc1 ... satisfied

Okay, now this molecule:
Textbook exercise: given the entry CCCc1cc(C)[nH]c(=O)c1CNC(=O)c1cc(-c2ccc(N3CCN(C(C)C)CC3)nc2)cc2c1cnn2C(C)C , state whether its Population Hoechst High Intensity Objects (%) is greater than or equal to 10%.
satisfied

###

# Test system: Fibroblast
# Assay Procedure: Multiplex assay against human fibroblast
# Format: toxicity, cell-based
# Settings: 12 h, 10 µM, compound concentration 10 uM, replicate 1
This section presents molecules with their documented Population Mitochondria Different-Phenotype (%) values.
Field format: number, assumed %, no unit text.

Cl.Cn1c2c(c3ccc(Cl)c(Cl)c31)C(C#N)C1(CCNCC1)NC2=O (stereo not drawn) ... 6

Dear colleague, please send me the reported Population Mitochondria Different-Phenotype (%) for CC(/C=C1\SC(=S)N(CCCC(=O)Nc2ccc(C(=O)O)c(O)c2)C1=O)=C\c1ccccc1 when you can.
9

Dear colleague, please send me the reported Population Mitochondria Different-Phenotype (%) for Cl.NC[C@@H]1O[C@H](C23CC4CC(CC(C4)C2)C3)Cc2c1ccc(O)c2O when you can.
9

Dear colleague, please send me the reported Population Mitochondria Different-Phenotype (%) for Oc1cccc(-c2nc(N3CCOCC3)c3oc4ncccc4c3n2)c1 [PI-103] when you can.
16

Dear colleague, please send me the reported Population Mitochondria Different-Phenotype (%) for Cc1c(Nc2ccc(S(=O)(=O)N3CCN(C)CC3)cc2F)nc2ccc(Nc3cnn(C4CC4)c3)cn2c1=O when you can.
1
